experimentalSystem: Factor X, P00742
Sequence (P00742 whole entry, looked up): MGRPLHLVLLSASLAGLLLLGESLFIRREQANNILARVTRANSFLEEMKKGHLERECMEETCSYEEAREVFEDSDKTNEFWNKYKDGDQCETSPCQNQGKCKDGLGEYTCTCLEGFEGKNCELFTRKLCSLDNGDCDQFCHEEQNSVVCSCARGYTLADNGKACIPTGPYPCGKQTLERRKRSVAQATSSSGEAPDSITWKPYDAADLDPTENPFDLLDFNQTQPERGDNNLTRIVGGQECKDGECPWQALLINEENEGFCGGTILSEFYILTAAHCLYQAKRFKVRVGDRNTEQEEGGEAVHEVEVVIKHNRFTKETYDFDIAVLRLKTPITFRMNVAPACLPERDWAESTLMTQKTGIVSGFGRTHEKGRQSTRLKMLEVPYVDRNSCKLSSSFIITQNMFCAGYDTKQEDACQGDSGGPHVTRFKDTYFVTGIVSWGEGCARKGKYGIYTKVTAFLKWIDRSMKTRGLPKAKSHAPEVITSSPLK
Values of kcat of FX activation by FIXa (Xase complex with FVIIIa, PC/PS vesicles, Ca2+) greater than or equal to 6 s⁻¹ map to rule met; values below map to rule not met.

[
  {
    "protein": "FIXa-Y259F/K265T/Y345T (protein) chain 1: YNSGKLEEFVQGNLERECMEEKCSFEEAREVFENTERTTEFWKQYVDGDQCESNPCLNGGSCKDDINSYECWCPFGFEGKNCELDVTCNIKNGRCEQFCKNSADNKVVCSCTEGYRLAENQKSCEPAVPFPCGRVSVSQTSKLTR chain 2: VVGGEDAKPGQFPWQVVLNGKVDAFCGGSIVNEKWIVTAAHCVETGVKITVVAGEHNIEETEHTEQKRNVIRIIPHHNFNAAINTYNHDIALLELDEPLVLNSYVTPICIADKEYTNIFLKFGSGYVSGWGRVFHKGRSALVLQYLRVPLVDRATCLRSTKFTITNNMFCAGFHEGGRDSCQGDSGGPHVTEVEGTSFLTGIISWGEECAMKGKYGIYTKVSRYVNWIKEKTKLT",
    "class": "rule not met"
  },
  {
    "protein": "FIXa-K247N/N249S/R318Y/R338E/R403E/E410N (protein) chain 1: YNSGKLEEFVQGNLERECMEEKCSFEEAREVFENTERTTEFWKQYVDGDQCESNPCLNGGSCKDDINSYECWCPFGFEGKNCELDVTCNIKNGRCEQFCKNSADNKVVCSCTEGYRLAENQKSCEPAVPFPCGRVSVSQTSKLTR chain 2: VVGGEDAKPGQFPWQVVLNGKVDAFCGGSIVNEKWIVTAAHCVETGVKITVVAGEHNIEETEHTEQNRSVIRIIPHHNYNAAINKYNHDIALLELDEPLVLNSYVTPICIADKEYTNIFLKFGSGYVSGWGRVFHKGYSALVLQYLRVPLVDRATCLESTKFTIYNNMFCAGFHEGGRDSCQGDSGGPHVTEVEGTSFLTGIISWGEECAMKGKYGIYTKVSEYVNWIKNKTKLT",
    "class": "rule not met"
  },
  {
    "protein": "FIXa-R318Y/R338E/R403E/E410N/T412A (protein) chain 1: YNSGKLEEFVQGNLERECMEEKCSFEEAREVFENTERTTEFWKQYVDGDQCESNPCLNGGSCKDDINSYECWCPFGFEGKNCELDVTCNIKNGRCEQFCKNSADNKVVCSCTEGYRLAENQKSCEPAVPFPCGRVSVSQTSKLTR chain 2: VVGGEDAKPGQFPWQVVLNGKVDAFCGGSIVNEKWIVTAAHCVETGVKITVVAGEHNIEETEHTEQKRNVIRIIPHHNYNAAINKYNHDIALLELDEPLVLNSYVTPICIADKEYTNIFLKFGSGYVSGWGRVFHKGYSALVLQYLRVPLVDRATCLESTKFTIYNNMFCAGFHEGGRDSCQGDSGGPHVTEVEGTSFLTGIISWGEECAMKGKYGIYTKVSEYVNWIKNKAKLT",
    "class": "rule met"
  },
  {
    "protein": "FIXa-Y155F/I251S/R318Y/R338E/R403E/E410N (protein) chain 1: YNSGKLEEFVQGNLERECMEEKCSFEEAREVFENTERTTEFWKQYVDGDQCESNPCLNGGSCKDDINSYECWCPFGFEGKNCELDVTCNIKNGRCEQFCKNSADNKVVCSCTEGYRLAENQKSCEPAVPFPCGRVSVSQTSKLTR chain 2: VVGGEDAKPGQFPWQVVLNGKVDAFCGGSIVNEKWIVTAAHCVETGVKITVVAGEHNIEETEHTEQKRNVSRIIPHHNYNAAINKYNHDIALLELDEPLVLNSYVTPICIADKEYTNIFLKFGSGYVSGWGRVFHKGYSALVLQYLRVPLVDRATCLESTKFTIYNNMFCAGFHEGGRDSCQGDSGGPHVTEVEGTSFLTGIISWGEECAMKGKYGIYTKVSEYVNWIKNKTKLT",
    "class": "rule met"
  },
  {
    "protein": "FIXa-R318Y/R338E/R403E/E410S (protein) chain 1: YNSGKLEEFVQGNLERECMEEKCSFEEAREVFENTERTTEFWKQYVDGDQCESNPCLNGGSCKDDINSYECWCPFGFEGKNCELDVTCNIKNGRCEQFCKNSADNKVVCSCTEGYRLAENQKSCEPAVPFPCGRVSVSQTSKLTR chain 2: VVGGEDAKPGQFPWQVVLNGKVDAFCGGSIVNEKWIVTAAHCVETGVKITVVAGEHNIEETEHTEQKRNVIRIIPHHNYNAAINKYNHDIALLELDEPLVLNSYVTPICIADKEYTNIFLKFGSGYVSGWGRVFHKGYSALVLQYLRVPLVDRATCLESTKFTIYNNMFCAGFHEGGRDSCQGDSGGPHVTEVEGTSFLTGIISWGEECAMKGKYGIYTKVSEYVNWIKSKTKLT",
    "class": "rule not met"
  },
  {
    "protein": "FIXa-D104N/K106S/I251S/R318Y/R338E/R403E/E410N (protein) chain 1: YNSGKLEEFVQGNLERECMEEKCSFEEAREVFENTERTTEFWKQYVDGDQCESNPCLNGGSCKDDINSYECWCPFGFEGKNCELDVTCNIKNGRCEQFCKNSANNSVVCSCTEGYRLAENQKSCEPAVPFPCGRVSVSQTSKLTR chain 2: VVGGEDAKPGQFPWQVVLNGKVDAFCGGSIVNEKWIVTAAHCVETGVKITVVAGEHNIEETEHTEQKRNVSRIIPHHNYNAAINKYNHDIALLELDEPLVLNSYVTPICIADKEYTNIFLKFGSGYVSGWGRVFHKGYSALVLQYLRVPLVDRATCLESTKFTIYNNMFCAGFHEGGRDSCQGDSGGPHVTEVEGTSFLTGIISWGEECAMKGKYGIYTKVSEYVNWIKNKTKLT",
    "class": "rule not met"
  },
  {
    "protein": "FIXa-D104N/K106S/K247N/N249S/R318Y/R338E/R403E/E410N (protein) chain 1: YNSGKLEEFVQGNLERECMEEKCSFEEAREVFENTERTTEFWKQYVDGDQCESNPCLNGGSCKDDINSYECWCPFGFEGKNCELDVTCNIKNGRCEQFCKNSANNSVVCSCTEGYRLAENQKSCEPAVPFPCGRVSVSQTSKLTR chain 2: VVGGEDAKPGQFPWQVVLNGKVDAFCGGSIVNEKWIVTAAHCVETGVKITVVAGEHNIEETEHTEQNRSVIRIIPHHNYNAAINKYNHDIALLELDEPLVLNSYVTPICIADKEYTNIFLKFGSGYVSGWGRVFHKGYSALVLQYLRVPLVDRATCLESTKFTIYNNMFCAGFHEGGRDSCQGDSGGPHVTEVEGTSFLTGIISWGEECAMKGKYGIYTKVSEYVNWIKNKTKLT",
    "class": "rule not met"
  }
]
